Test system: Chenopodium album
Test: Farming soil treatment test
Format: in vivo
Details: 5 g a.i./10 a; soil surface spray prior to weed growth; 30 days
Reported herbicidal efficacy, Chenopodium album by item:

Please review the following examples before continuing.
N#Cc1cnn(-c2nn3c(c2Cl)CCCC3)c1N=Cc1ccncc1 [Compound 23] ... 10 (100%)
N#Cc1cnn(-c2nn3c(c2Cl)CCCC3)c1N=Cc1cccnc1 [Compound 22] ... 9 (90% to less than 100%)
N#Cc1cnn(-c2nn3c(c2Cl)CCCC3)c1/C=C/c1ccccn1 [Compound 3.43, reference compound] ... 2 (20% to less than 30%)
COC=Nc1c(C#N)cnn1-c1nn2c(c1Cl)CCCC2 [Compound 33] ... 9 (90% to less than 100%)
N#Cc1cnn(-c2nn3c(c2Cl)CCCC3)c1N=CC1CCCCC1 [Compound 1] ... 9 (90% to less than 100%)

Prompt: Give herbicidal efficacy, Chenopodium album for the following compound: N#Cc1cnn(-c2nn3c(c2Br)CCCC3)c1/C=C/c1ccccn1 [Compound 3.44, reference compound]
Response: 2 (20% to less than 30%)

Prompt: Name the recorded herbicidal efficacy, Chenopodium album of the item N#Cc1cnn(-c2nn3c(c2Cl)CCCC3)c1/C=C/c1ncccn1 [Compound 3.39, reference compound] in your answer.
Response: 4 (40% to less than 50%)
